# experimental.system: D(4) dopamine receptor (Homo sapiens, UniProt P21917)
# Sequence (P21917 whole entry): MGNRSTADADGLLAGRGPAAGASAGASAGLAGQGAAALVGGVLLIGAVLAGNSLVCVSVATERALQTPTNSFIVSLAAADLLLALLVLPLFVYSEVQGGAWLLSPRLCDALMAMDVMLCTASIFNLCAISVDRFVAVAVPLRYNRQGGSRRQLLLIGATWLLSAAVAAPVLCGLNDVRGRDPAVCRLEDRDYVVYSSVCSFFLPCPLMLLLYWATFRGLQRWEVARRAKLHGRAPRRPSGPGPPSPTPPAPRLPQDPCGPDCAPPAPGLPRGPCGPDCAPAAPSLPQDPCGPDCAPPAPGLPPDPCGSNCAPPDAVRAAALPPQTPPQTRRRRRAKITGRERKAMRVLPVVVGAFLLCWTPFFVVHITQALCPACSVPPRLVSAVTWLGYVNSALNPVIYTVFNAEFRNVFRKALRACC
property.label: Ki

Print D(4) dopamine receptor (Homo sapiens, UniProt P21917) Ki for COc1ccccc1N1CCN(CC2COCC(c3ccccc3)(c3ccccc3)O2)CC1 (stereo not drawn) . 1380 nM

Print D(4) dopamine receptor (Homo sapiens, UniProt P21917) Ki for COc1ccccc1OCCNCC1OCCOC1(c1ccccc1)c1ccccc1 (stereo not drawn) . 275 nM

Print D(4) dopamine receptor (Homo sapiens, UniProt P21917) Ki for COc1ccccc1N1CCN(C[C@H]2OCCOC2(c2ccccc2)c2ccccc2)CC1 . 9770 nM
